System: UACC-62 melanoma
Test: NCI-60 one-dose screen, 48 h
Conditions: 10 µM unless noted
About 83,000 compounds went through this panel and 20% of them were active in at least one assay; those are over-represented in the sample as a whole. The source made the active and inactive calls. The calls were made as follows: active = growth percent below 10; inactive = the rest.
Respond with a class label; see Y for active, N for inactive

Sample answers from the record:
> print(dat)
                               line.notation       system.name  class.label
 1  NC(=O)CSc1oc(-c2ccccc2)nc1S(=O)(=O)c1ccc(Br)cc1  UACC-62 melanoma            N
 2  COc1ccc(/C=N/NC(=O)c2ccc(-n3cc(-c4ccccc4)nn3)cc2)cc1OC  UACC-62 melanoma            N
 3  O=C1Nc2ccccc2/C1=C/c1nc2ccccc2c(=O)[nH]1  UACC-62 melanoma            N
 4  NC(=O)c1c(NC(=O)c2ccc3ccccc3c2)sc2c1CCC(=O)C2  UACC-62 melanoma            N
 5  Cc1cn(-c2cc(NC(=O)c3cccc(C#Cc4cccc5[nH]nc(N)c45)c3)cc(C(F)(F)F)c2)cn1  UACC-62 melanoma            Y
 6      Fc1ccc(CNc2c3ccccc3nc3ccccc23)c(F)c1  UACC-62 melanoma            N
 7          COc1ccccc1CNc1c2ccccc2nc2ccccc12  UACC-62 melanoma            N
 8  N#Cc1c(-c2ccc(Cl)cc2)c(C#N)c2c(C#N)c(N)nn2c1N  UACC-62 melanoma            N
 9    O=c1[nH]c(-c2ccccc2)nc2sc3cc(O)ccc3c12  UACC-62 melanoma            N
10  Cn1ccnc1C(=O)/C=C/c1ccc(C(=O)Nc2ccc(Cl)cc2)cc1  UACC-62 melanoma            N

Identify the outcome logged in this assay for the molecule shown: O=C1/C(=C\c2ccc3nccnc3c2)SC(=S)N1CCc1ccc(O)cc1
N

Call for entry COCCn1cc(-c2nc(-c3cc4cccnc4[nH]3)cs2)c2cc(OC)ccc21 :
N

Check the results log: what was the call for CCCOC(=O)Nc1nc2ccc(SCC(C)C)cc2s1 ?
N

Any idea what this test logged for COc1cc(OC)c(NC(=O)c2cc3ccccc3cc2O)cc1Cl ?
Y

Please indicate how the test categorized C#CCOC(=O)/C=C/c1cn(-c2ccccc2)nc1-c1ccc(OC)cc1 .
N

Test call, this molecule: C=CCN=c1sc2c(n1NC(=O)c1cc3ccc1CCc1ccc(cc1)CC3)C(=O)c1ccccc1C2=O
Y

# lookup: test call for Clc1cc(Cl)c(Cl)c(-c2nnc(SCc3ccncc3Br)o2)c1
N

----------
Tested on: NCI-H460 lung
Assay: NCI-60 one-dose screen, 48 h
Conditions: 10 µM unless noted
About 83,000 compounds went through this panel and 20% of them were active in at least one assay; those are over-represented in the sample as a whole. Active and inactive are the calls of the source. How the source made its calls: active means growth percent below 10; inactive means the rest.
Select the matching outcome among True for active, False for inactive

Below are worked cases with known answers.
> print(dat)
                                   molecule  class.label
1  CC1CCN(CCOc2ccc(CNc3ccc4nc(CCC5CCCCC5)[nH]c4c3)cc2)CC1        False
2  O=C(N/N=C/c1ccc(Cl)cc1)c1[nH]c2ccc(Cl)cc2c1-c1ccccc1         True
3  CCO/C=N/C1=C(C#N)C(c2ccc(Cl)cc2)c2sc3c(F)cccc3c2O1 (stereo not given)        False
4  CC(C)c1ccc(Cc2cnc(NC(=O)c3cc(Br)cs3)s2)cc1        False
5  CC(=O)n1nc(C(=O)OC(C)(C)c2ccccc2)c2ccccc21        False

Please share the test call associated with C=C1C(=O)O[C@H]2[C@H]1CC/C(COC(=O)/C=C\C(=O)NCc1ccc(Cn3c(=O)sn(CCI)c3=O)cc1)=C\CC[C@@]1(C)O[C@@H]21 .
False

What outcome does the record of this test show for COc1cc2cc(NCc3cccc(Cl)c3)nc(C)c2cc1OC ?
False

Which outcome was entered for the molecule CCN(CC)Cc1cc(C=C2C(=O)NC(=S)NC2=O)cc(OC)c1O in this test?
False

Assay outcome for C#CCOc1ccc2ncnc(Nc3ccc(NC(=O)C=C)cc3)c2c1 : what was it?
False

Identify the outcome logged in this assay for the molecule shown: O=C1Nc2ccc(C(=O)O)cc2/C1=N/c1nnc(Sc2ccccc2)s1
False

Status in this test for CCOC(=O)c1csc(NC(=O)COc2ccc(/C=C3\Oc4ccccc4C3=O)cc2)n1 ?
False

----------
Tested on: COLO 205 colon
Assay: NCI-60 one-dose screen, 48 h
Details: 10 µM unless noted
About 83,000 compounds went through this panel and 20% of them were active in at least one assay; those are over-represented in the sample as a whole. Calls of active or inactive are those of the source. Rule for the calls: active = growth percent below 10; inactive = the rest.
Response enum: 1.0 for active, 0.0 for inactive

Molecule	System Name	Class Label
C=C(C)[C@@H]1CCC[C@]2(COS(=O)(=O)c3ccc(C)cc3)CC[C@]3(C)[C@@H](CC[C@@H]4[C@@]5(C)CCCNC(C)(C)[C@@H]5CC[C@]43C)[C@@H]12	COLO 205 colon	1.0

Can you look up the reported call for O=S(=O)(Nc1cc(F)cc(Cl)c1)c1ccc(-c2cnc(C3CC3)o2)cc1 for me?
0.0

State the result this test recorded for Cc1ccc(NC(=O)Cn2cc(CN3CCN(c4ccnc5cc(Cl)ccc45)CC3)nn2)cc1 .
0.0

----------
Tested on: HCT-116 colon
Experiment: NCI-60 one-dose screen, 48 h
Conditions: 10 µM unless noted
This is part of a sample that, as a whole, favours compounds with a hit. Of some 83,000 tested, about 20% had one in any assay. Calls of active or inactive are those of the source. Rule for the calls: active = growth percent below 10; inactive = the rest.
Thanks in advance; please answer with one of these: active, inactive

Compound	System Name	Class Label
COc1ccc(Nc2nnc(-c3ccc(OC)c(OC)c3)o2)cc1	HCT-116 colon	inactive
CCCCCC(/C=N\NC(=S)N/N=C/C(=C/c1ccccc1)CCCCC)=C\c1ccccc1	HCT-116 colon	inactive
COc1ccc(C(C)=O)cc1S(=O)(=O)Nc1c(N)nc(SC)[nH]c1=O	HCT-116 colon	inactive

Hello, I am checking results. What call was entered for C=C1CC[C@@H]2[C@](C)(COC(C)=O)[C@H](OC(C)=O)CC[C@@]2(C)[C@@H]1CC(Nc1ccc(S(=O)(=O)Nc2ncccn2)cc1)C1=CCOC1=O (some centres undefined) ?
active

Any idea what this test logged for Cc1cc(C)c2c(c1)N(C)c1ncnc(-n3cnc4cc(C)ccc43)c1CC2C (centres undefined) ?
inactive

Identify the outcome logged in this assay for the compound shown: COc1ccc(\C=N/N=C(N)/C(N)=N\N=C/c2ccc(OC)cc2)cc1
inactive

Outcome? Cc1cc(N2CCN(CC(=O)Nc3ccc4c(ccn4C)c3)CC2)nc(N2CCCCCC2)n1
inactive

Short answer needed: outcome of this test for COc1ccc(-c2cc(-c3cccnc3)nc3sc4c(=O)[nH]c(-c5ccc(Cl)cc5)nc4c23)cc1OC ?
inactive

// outcome(item) with item = NNc1nc(-c2cccnc2)nc2c1sc(=S)n2-c1ccccc1
inactive

----------
System: K-562 leukemia
Test: NCI-60 one-dose screen, 48 h
Details: 10 µM unless noted
This is part of a sample that, as a whole, favours compounds with a hit. Of some 83,000 tested, about 20% had one in any assay. Active and inactive are the calls of the source. Rule for the calls: active = growth percent below 10; inactive = the rest.
Thanks in advance; please answer with one of these: active, inactive

> print(dat)
                                   compound  class.label
1  COc1cc2c(cc1OCCCN1CCN(CCCOc3cc4c(cc3OC)C(=O)N3CCC[C@H]3C=N4)CC1)C=CC(C)(C)O2       active
2  COc1cc2c(c(OC)c1OC)CCC(c1cccc(C(=O)Nc3ccc(C#N)cc3)c1)O2 (stereo unspecified)     inactive
3  COc1cc(/C=C2/C=C(c3ccccc3)N(CCc3ccc(S(N)(=O)=O)cc3)C2=O)cc(OC)c1OC     inactive
4  CCOC(=O)c1ccc2c(c1)nc(-c1ccccc1)n2C1CCCCC1     inactive

Check the results log: what was the call for Nc1cnc(C(=O)NNc2nc3cc(F)ccc3n3cccc23)cn1 ?
inactive

Short answer needed: outcome of this test for O=C1NC2(Nc3ccccc31)C(=O)Nc1c(Cl)cc(Cl)cc12 (stereo unspecified) ?
inactive

Write down the call the test reported for this compound. Item: Cc1cccc(CNc2c3ccccc3nc3ccccc23)c1
active

Hi, sorry to bother you, what did the test record for CCN(CC)CC(O)COc1c(Br)c(Br)c(Br)c2c1OC(C)(C)C2 (stereo unspecified) ?
inactive

Per the records of this test, what outcome belongs to O=C(c1nn(-c2ccccc2)c2c1CC(NCc1ccc(F)cc1)CC2)N1CCCCC1 (stereo unspecified) ?
inactive

# fetch the recorded call for COCCn1cc(-c2nc(-c3cc4cccnc4[nH]3)cs2)c2cc(OC)ccc21 here
active

Query: recorded result category for COc1ccc(-c2ccc(-c3ccc(C(=N)N)cc3)s2)cc1Cl in this test
active

Data provenance: PubChem BioAssay (NCI)
